Assay: KontRASt-01 (NCT04699188) clinical pharmacokinetics
Format: in vivo, human
Settings: human, plasma, oral; 200 mg BID; patients
Protocol: FIG. 15: PK and target occupancy profiles of JDQ443 RD 200 mg BID. […] Error bars indicate standard deviation for PK profile at each timepoint. […]
REPORTED_ENDPOINT: half-life

Quick check: half-life of C=CC(=O)N1CC2(CC(n3nc(-c4ccc5c(cnn5C)c4)c(-c4c(Cl)c(C)cc5[nH]ncc45)c3C)C2)C1 (single isomer, unassigned) ?
~7 h

----------
assay: KontRASt-01 (NCT04699188) clinical pharmacokinetics; type: in vivo; details: human, plasma, oral; Case 2; JDQ443 200 mg QD continuously + TNO155 20 mg QD 2 wk on/1 wk off; JDQ443 exposure
REPORTED_ENDPOINT: Tmax (h)
All answers are understood in h, so give the number only.

Quick check: Tmax of C=CC(=O)N1CC2(CC(n3nc(-c4ccc5c(cnn5C)c4)c(-c4c(Cl)c(C)cc5[nH]ncc45)c3C)C2)C1 (single isomer, unassigned) ?
3.2

Entry source: patent US20240366567A1
